biological target: human CYP2C19 (Homo sapiens); experiment: biochemical; conditions: CYP2C19 AC50 (half-maximal activity concentration)
Criterion: AC50 strictly under 7 µM. Met: true (1). Not met: false (0).

- Molecule: "Clc1ccc(C(c2ccccc2Cl)C(Cl)Cl)cc1 (stereo not shown) [Mitotane]"
  Target Of Assay: "human CYP2C19 (Homo sapiens)"
  Label Class: "true (1)"

Kindly consider the entry below.
Dear reviewer, please state whether BrC(Br)C(Br)(Br)Br has AC50 strictly beneath 7 µM.
false (0)

###

biological target: UniProt:P33261
# CYP2C19 Efficacy annotations

- Molecule: "Cl.Cl.NCCNc1cccc2ccccc12"
  Target Of Assay: "UniProt:P33261"
  Value Measured: "24.7 ± 6.17 (-146 ± 5) %"
- Molecule: "CCCCCCCCCCCCCCCCCC[N+](C)(C)Cc1ccccc1.[Cl-]"
  Target Of Assay: "UniProt:P33261"
  Value Measured: "48.63 ± 14.39 (-147 ± 23) %"
- Molecule: "CSc1ccc(C(=O)C(C)(C)N2CCOCC2)cc1"
  Target Of Assay: "UniProt:P33261"
  Value Measured: "0.94 ± 0.32 (-142 ± 3) %"
- Molecule: "Cl.ClCCCN1CCN(c2cccc(Cl)c2)CC1"
  Target Of Assay: "UniProt:P33261"
  Value Measured: "8.86 ± 2.03 (-125 ± 5) %"
- Molecule: "Cl.Cl.c1ccc(CNCCNCc2ccccc2)cc1"
  Target Of Assay: "UniProt:P33261"
  Value Measured: "8.08 ± 0.55 (-122 ± 16) %"

Entry C[C@@H](Cc1ccccc1)NCc1ccccc1Cl.Cl [Clobenzorex hydrochloride] , tested on UniProt:P33261, has a reported CYP2C19 Efficacy of 1.49 ± 0.1 (-137 ± 12) %

Entry CCCCCCCCCCCCCCCC[N+](C)(C)Cc1ccccc1.[Cl-] [Benzylhexadecyldimethylammonium chloride] , tested on UniProt:P33261, has a reported CYP2C19 Efficacy of 46.97 ± 13.09 (-144 ± 26) %

Entry CN(C)CCN(Cc1ccc(Cl)cc1)c1ccccn1.Cl [Chloropyramine hydrochloride] , tested on UniProt:P33261, has a reported CYP2C19 Efficacy of 7.51 ± 1.03 (-122 ± 9) %

Entry CCC(CN)=C(c1ccccc1)c1ccccc1.Cl [Etifelmine hydrochloride] , tested on UniProt:P33261, has a reported CYP2C19 Efficacy of 5.99 ± 2.37 (-107 ± 10) %

Entry COC(=O)c1c(C)cc(O)c(C)c1O , tested on UniProt:P33261, has a reported CYP2C19 Efficacy of 6.41 ± 1.34 (-140 ± 12) %

Entry O=S(=O)(Oc1ccc(Cl)cc1)c1ccccc1 , tested on UniProt:P33261, has a reported CYP2C19 Efficacy of 0.78 ± 0.29 (-135 ± 6) %

Entry CCCC[P+](CC)(CCCC)CCCC.CCOP(=O)([O-])OCC , tested on UniProt:P33261, has a reported CYP2C19 Efficacy of 70.71 ± 33.56 (-88 ± 37) %

Entry CCOC(=O)c1ccc(OC(=O)CCCCCN=C(N)N)cc1.CS(=O)(=O)O [Gabexate mesilate] , tested on UniProt:P33261, has a reported CYP2C19 Efficacy of 10.33 ± 4.77 (-82 ± 30) %

Entry FC(F)(F)c1ccccc1-n1ccnc1 , tested on UniProt:P33261, has a reported CYP2C19 Efficacy of 9.3 ± 5.41 (-172 ± 73) %

Entry CCCCCCCCCCCCCCCC[N+](C)(C)C.[Cl-] [Hexadecyl trimethyl ammonium chloride] , tested on UniProt:P33261, has a reported CYP2C19 Efficacy of 43.2 ± 0.0 (-68 ± 16) %

Entry CCCCCCCCCCCCCC[P+](CCCC)(CCCC)CCCC.CCCCCCCCCCCCc1ccc(S(=O)(=O)[O-])cc1 , tested on UniProt:P33261, has a reported CYP2C19 Efficacy of 21.96 ± 3.74 (-142 ± 38) %

Entry Cl.OC(CNCC(O)C1CCc2cc(F)ccc2O1)C1CCc2cc(F)ccc2O1 (racemic) [rac Nebivolol hydrochloride] , tested on UniProt:P33261, has a reported CYP2C19 Efficacy of 41.28 ± 3.36 (-60 ± 3) %

Entry OCC(c1ccc(Cl)cc1)c1ccc(Cl)cc1 , tested on UniProt:P33261, has a reported CYP2C19 Efficacy of 0.14 ± 0.07 (-161 ± 31) %

Entry Cc1ccc2nc(N)[nH]c(=O)c2c1Sc1ccncc1.Cl.Cl [Nolatrexed dihydrochloride] , tested on UniProt:P33261, has a reported CYP2C19 Efficacy of 3.3 ± 1.68 (-116 ± 1) %

###

biological target: human CYP2C9 (Homo sapiens); assay: biochemical; details: CYP2C9 IC50 (half-maximal inhibitory concentration)
Sequence (P11712 whole entry): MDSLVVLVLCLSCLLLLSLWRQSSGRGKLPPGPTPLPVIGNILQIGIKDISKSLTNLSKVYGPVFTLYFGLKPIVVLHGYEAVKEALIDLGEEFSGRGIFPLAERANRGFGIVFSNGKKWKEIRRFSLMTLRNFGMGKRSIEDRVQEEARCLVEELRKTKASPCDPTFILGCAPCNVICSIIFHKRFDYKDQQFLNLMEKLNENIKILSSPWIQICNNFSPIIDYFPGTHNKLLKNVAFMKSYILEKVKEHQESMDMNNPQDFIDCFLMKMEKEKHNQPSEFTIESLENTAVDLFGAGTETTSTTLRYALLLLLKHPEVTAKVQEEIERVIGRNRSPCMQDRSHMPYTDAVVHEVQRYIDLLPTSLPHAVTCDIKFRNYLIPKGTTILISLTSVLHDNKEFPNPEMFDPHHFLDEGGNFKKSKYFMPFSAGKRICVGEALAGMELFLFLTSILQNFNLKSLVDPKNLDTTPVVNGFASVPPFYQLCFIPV
Criterion: IC50 strictly under 10 µM. Met: Y. Not met: N.

Example entries and their recorded answers appear below.
- Molecule: "CCCC(Cn1cncn1)c1ccc(Cl)cc1Cl (stereo not drawn)"
  Target Of Assay: "human CYP2C9 (Homo sapiens)"
  Label Class: "Y"
- Molecule: "CC(C)(C)C(O)(CCc1ccc(Cl)cc1)Cn1cncn1 (stereo not drawn)"
  Target Of Assay: "human CYP2C9 (Homo sapiens)"
  Label Class: "Y"
- Molecule: "Clc1ccc(C(Cn2ccnc2)OCc2ccsc2Cl)c(Cl)c1 (stereo not drawn)"
  Target Of Assay: "human CYP2C9 (Homo sapiens)"
  Label Class: "Y"
- Molecule: "COC(=O)N(C(=O)N1CO[C@@]2(C(=O)OC)Cc3cc(Cl)ccc3C2=N1)c1ccc(OC(F)(F)F)cc1"
  Target Of Assay: "human CYP2C9 (Homo sapiens)"
  Label Class: "Y"
- Molecule: "CC(C)(C)[C@@H](O)[C@@H](Cc1ccc(Cl)cc1)n1cncn1 (racemic)"
  Target Of Assay: "human CYP2C9 (Homo sapiens)"
  Label Class: "N"
- Molecule: "Fc1ccc(Oc2ccnc3cc(Cl)cc(Cl)c23)cc1"
  Target Of Assay: "human CYP2C9 (Homo sapiens)"
  Label Class: "N"
- Molecule: "Clc1ccc(C(c2ccccc2Cl)C(Cl)(Cl)Cl)cc1 (stereo not drawn)"
  Target Of Assay: "human CYP2C9 (Homo sapiens)"
  Label Class: "N"
- Molecule: "Cc1ccccc1C(=O)Nc1ccc(C(=O)N2CCCC(N(C)C)c3ccccc32)cc1 (stereo not drawn)"
  Target Of Assay: "human CYP2C9 (Homo sapiens)"
  Label Class: "N"
- Molecule: "CC(N/C(=N\\C#N)Nc1ccncc1)C(C)(C)C (stereo not drawn) [Pinacidil monohydrate]"
  Target Of Assay: "human CYP2C9 (Homo sapiens)"
  Label Class: "N"
- Molecule: "C=CC(=O)OCC(CO)(COC(=O)C=C)COC(=O)C=C [Pentaerythritol triacrylate]"
  Target Of Assay: "human CYP2C9 (Homo sapiens)"
  Label Class: "N"

Dear reviewer, please state whether Clc1ccc(C(c2ccccc2Cl)C(Cl)Cl)cc1 (stereo not drawn) has IC50 strictly beneath 10 µM.
N

Dear reviewer, please state whether CCCOC/C(=N\c1ccc(Cl)cc1C(F)(F)F)n1ccnc1 has IC50 strictly beneath 10 µM.
Y

Dear reviewer, please state whether CC1COC(Cn2cncn2)(c2ccc(Oc3ccc(Cl)cc3)cc2Cl)O1 (stereo not drawn) has IC50 strictly beneath 10 µM.
Y

Dear reviewer, please state whether COc1ccc(C(O)(c2cncnc2)C2CC2)cc1 (stereo not drawn) has IC50 strictly beneath 10 µM.
N

Dear reviewer, please state whether CCOC(=O)O[C@]1(C(=O)OCCl)CC[C@H]2[C@@H]3CCC4=CC(=O)C=C[C@]4(C)[C@H]3[C@@H](O)C[C@@]21C [Loteprednol etabonate, reference compound] has IC50 strictly beneath 10 µM.
N

Dear reviewer, please state whether OC(c1ccc(Cl)cc1)(c1cncnc1)c1ccccc1Cl (stereo not drawn) has IC50 strictly beneath 10 µM.
Y

Dear reviewer, please state whether CC(=O)SCC(Cc1ccccc1)C(=O)NCC(=O)OCc1ccccc1 (stereo not drawn) has IC50 strictly beneath 10 µM.
Y

Dear reviewer, please state whether CC(C)(C)C(=O)C(Oc1ccc(Cl)cc1)n1cncn1 (stereo not drawn) has IC50 strictly beneath 10 µM.
N

###

target: human CYP2C19 (Homo sapiens, UniProt P33261); conditions: human
Sequence (P33261 whole entry): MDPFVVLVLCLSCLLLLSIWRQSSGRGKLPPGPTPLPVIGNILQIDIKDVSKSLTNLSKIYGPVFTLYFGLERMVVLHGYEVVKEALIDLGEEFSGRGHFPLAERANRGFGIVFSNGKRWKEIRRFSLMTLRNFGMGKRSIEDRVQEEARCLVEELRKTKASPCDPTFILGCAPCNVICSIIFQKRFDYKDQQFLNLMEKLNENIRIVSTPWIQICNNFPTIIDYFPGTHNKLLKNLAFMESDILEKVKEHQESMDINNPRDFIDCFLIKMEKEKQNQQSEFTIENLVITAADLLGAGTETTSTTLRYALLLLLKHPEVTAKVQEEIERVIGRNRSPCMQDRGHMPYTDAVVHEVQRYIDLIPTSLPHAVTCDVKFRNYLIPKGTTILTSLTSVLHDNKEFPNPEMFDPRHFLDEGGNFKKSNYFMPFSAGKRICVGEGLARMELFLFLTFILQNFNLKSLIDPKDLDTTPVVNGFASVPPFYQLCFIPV
Endpoint Label: CYP2C19 Efficacy (in parenthesis)

- Compound: "O=[N+]([O-])c1c2ccccc2cc2ccccc12 [9-Nitroanthracene]"
  Endpoint Label: "CYP2C19 Efficacy (in parenthesis)"
  Value Measured: "19.86 ± 2.28 (-116 ± 4) %"
- Compound: "COC(=O)N(OC)c1ccccc1COc1ccn(-c2ccc(Cl)cc2)n1 [Pyraclostrobin]"
  Endpoint Label: "CYP2C19 Efficacy (in parenthesis)"
  Value Measured: "0.57 ± 0.25 (-152 ± 29) %"
- Compound: "CCC(C)n1ncn(-c2ccc(N3CCN(c4ccc(OCC5COC(Cn6cncn6)(c6ccc(Cl)cc6Cl)O5)cc4)CC3)cc2)c1=O (stereo not shown) [Itraconazole]"
  Endpoint Label: "CYP2C19 Efficacy (in parenthesis)"
  Value Measured: "8.3 ± 4.22 (-53 ± 15) %"

For the next question, use this compound.
Per the record, Brc1ccc(Oc2ccc(Br)cc2Br)c(Br)c1 [2,2'4,4'-Tetrabromodiphenyl ether] has CYP2C19 Efficacy (in parenthesis) of 0.55 ± 0.43 (-128 ± 5) %

FYI, the data here is from paper PMC12155096.
